Assay overview: soluble on expression in E. coli; label from the status in PepcDB or PDB records

- Sequence content: "DIHRQAYAAMLHSSQSSLGTALKFFHAQSVIDNAYDQEHVHYIDRQVKTRKGMPEASADSIRALLEIDLPARGYSKIDVPCKGSDFCIIGQQHPNSAHFVAIPDYQFLDKSGFDRVVYIWPQGYTLAEEACYFYYVNQASTDSIVRGHVTQGC"
  soluble on expression in E. coli: "not soluble"
- Sequence content: "MGHHHHHHSHMAGPVKDREAFQRLNFLYQAAHCVLAQDPENQALARFYCYTERTIAKRLVLRRDPSVKRTLCRGCSSLLVPGLTCTQRQRRCRGQRWTVQTCLTCQRSQRFLNDPGHLLWGDRPEAQLGSQADSKPLQPLPNTAHSISDRLPEEKMQTQGSSNQ"
  soluble on expression in E. coli: "not soluble"
